# System: HOP-92 NSCLC
# Assay Remarks: NCI-60 one-dose screen, 48 h (100 = growth as untreated, 0 = no growth, -100 = all killed)
# Condition Description: 10 µM unless noted
Compounds without any hit were thinned out: in the full panel of roughly 83,000, 20% have a hit. Active and inactive are the calls of the source. How the source made its calls: active means growth percent below 10; inactive means the rest.
Observed Property: growth

Some compounds with known growth results, for comparison:
INSERT INTO results (compound, experimental_result) VALUES
  ('CCCCCCCCCCCCCCCC[N+](C)(CCO)Cc1cnc[nH]1 (centres undefined)', '-55.8% (active)'),
  ('CCCCCCCCCCCCCCCCCCOP(=O)([O-])OC1CC[N+](C)(C)CC1', '-25.3% (active)'),
  ('CCN(CC)CC(C)(C)C(=O)/C=C/c1ccc(Cl)c(Cl)c1', '-3.59% (active)');

Kindly review the next compound as well.
growth for C[N+](C)=c1ccc2nc3c(cc(NCCCNc4cc5oc6cc(=[N+](C)C)ccc-6nc5c5ccccc45)c4ccccc43)oc-2c1 is 59% (inactive)

Hello, the source for this data is PubChem BioAssay (NCI), in case you need it.
